Entry source: ChEMBL document CHEMBL1129660

# Tested on: Shigella
# assay: Antibacterial activity tested against Shigella enteritidis
# Assay type: functional
Below: a set of entries, each annotated with reported MIC.
metric: MIC (µg/mL)

compound: Cc1c(N2CCOCC2)c(N)cc2c(=O)c(C(=O)O)cn(C3CC3)c12
target_under_test: Shigella
metric: MIC
observed_measurement: 0.125

compound: CC1CN(c2cc3c(cc2N)c(=O)c(C(=O)O)cn3C2CC2)CCS1 (stereo not given)
target_under_test: Shigella
metric: MIC
observed_measurement: 0.5

compound: CN1CCN(c2nc3c(cc2N)c(=O)c(C(=O)O)cn3C2CC2)CC1
target_under_test: Shigella
metric: MIC
observed_measurement: 0.125

compound: Cc1c(N2CCCCC2)c([N+](=O)[O-])cc2c(=O)c(C(=O)O)cn(C3CC3)c12
target_under_test: Shigella
metric: MIC
observed_measurement: 64

compound: Cc1c(N2CCCCC2)c(F)cc2c(=O)c(C(=O)O)cn(C3CC3)c12
target_under_test: Shigella
metric: MIC
observed_measurement: 0.5

compound: Cc1c(N2CCCC(CO)C2)c(N)cc2c(=O)c(C(=O)O)cn(C3CC3)c12 (stereo not given)
target_under_test: Shigella
metric: MIC
observed_measurement: 1

compound: Cc1c(N2CCN(C)CC2)c(N)cc2c(=O)c(C(=O)O)cn(-c3ccc(O)cc3)c12
target_under_test: Shigella
metric: MIC
observed_measurement: 4

compound: Cc1c(N2CCN(C)CC2)c(N)cc2c(=O)c(C(=O)O)cn(C3CC3)c12
target_under_test: Shigella
metric: MIC
observed_measurement: 0.06

compound: Cc1c(N2CCC2)c(N)cc2c(=O)c(C(=O)O)cn(C3CC3)c12
target_under_test: Shigella
metric: MIC
observed_measurement: 16

compound: Cc1c(N2CCN(C)CC2)c([N+](=O)[O-])cc2c(=O)c(C(=O)O)cn(C3CC3)c12
target_under_test: Shigella
metric: MIC
observed_measurement: 1
